Hey, just so you know, these numbers are from the supplement of paper PMC10567573.

For each record, write down the corresponding protein stability index.
B1: TRAF3IP2 (parent)
chain: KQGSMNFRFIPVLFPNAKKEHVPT

Variants of: B1
Experiment: protein stability index of a GFP-peptide fusion (GPS, HEK-293T) (PSI 1-6); higher = more stable;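 note: lentivirally expressed fusions sorted by FACS into six bins by GFP to DsRed ratio, PSI derived from sequencing read proportions per bin multiplied by bin number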
Details: c terminus: a fixed tail appended
Answer with the value's number alone.

Which protein stability index is reported for this variant? F9N
3.56

Report protein stability index for Q2M please.
1.48

Looking for the measured protein stability index of N6W , can you help?
1.83

Any idea what its protein stability index is? The variant is V12G
1.96

Request the reported protein stability index associated with K1L
1.51

Need protein stability index of F9C , thanks.
2.15

Value lookup for protein stability index; key = K18D
2.34

Form field: reported protein stability index of Q2K
1.91

Which protein stability index is reported for this variant? L13P
1.87

I am curious: what protein stability index value has been reported for M5T ?
2.5

Could you share which protein stability index value was measured for K1C ?
2.01

Query: protein stability index; subject: M5R
2.2

Please look up its protein stability index: N16G
2.08

Which protein stability index value is on record for N16R ?
2.59

# get_value(readout='protein stability index', item= M5V )
1.91

Could you tell me which protein stability index is on file for S4W ?
1.41

Quick check: protein stability index of P23K ?
2

Which value of protein stability index has been reported for N16D in the records?
1.58

Requested read-out: protein stability index. Entry: P15R
1.92

Give its protein stability index value. Item: F9V
2.77

Return reported protein stability index; argument: K1N
1.94

Any idea what protein stability index was measured for E20L ?
1.67

Item under review: L13A . Reported protein stability index?
1.66

So what does the record say about protein stability index for V12N ?
2.84

Consider the variant T24R and give its measured protein stability index.
2.33

Entry I10N has what protein stability index?
2.9

I'd like to know its protein stability index. The variant in question is V22M
2.24

Returns the measured protein stability index for the input variant. Input: G3P
1.74

Value lookup for protein stability index; key = N6F
1.74

So what does the record say about protein stability index for A17K ?
1.82

Look up protein stability index: L13D
2.62

Dear colleague, I am looking for the recorded protein stability index of the following variant: H21N
2.21

State the recorded protein stability index for this entry: K18A
1.76

Need protein stability index of F9A , thanks.
3.43

Param item = M5G ; retrieve measured protein stability index.
2.43

Sample F14L — what was its protein stability index?
1.68

Requested read-out: protein stability index. Entry: N6C
1.67

# query: protein stability index of entry G3F
3.01

Fill in: protein stability index of H21P is ___
2.14

Fill blank: measured protein stability index of the variant A17E is ____.
2.47

So what's the measured protein stability index for this one? Q2R
1.47

What value of measured protein stability index is listed for F14K ?
2.62

Name the recorded protein stability index for S4G .
1.53

Requested read-out: protein stability index. Entry: E20G
2.24

So what does the record say about protein stability index for K1Q ?
1.88

Requested read-out: protein stability index. Entry: T24K
2.19
